meta.source: the supplement of paper PMC10567573

B1: FBF1 (parent)
chain: QLQCSPAELQAELLHSQARLAELE

Variants of: B1
PROTOCOL_DETAILS: protein stability index of a GFP-peptide fusion (GPS, HEK-293T) (PSI 1-6); higher = more stable;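 note: lentivirally expressed fusions sorted by FACS into six bins by GFP to DsRed ratio, PSI derived from sequencing read proportions per bin multiplied by bin number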
CONDITION_LABEL: c terminus: a fixed tail appended
Answer each item with its documented protein stability index.
Answer with the value's number alone.

q: Form field: reported protein stability index of L13F
a: 4.25

q: Please do the same for Q10I as well.
a: 2.04

q: Let us now turn to L20C
a: 3.35

q: Field entry: L23F
a: 2.75

q: // same read-out, input: Q17V
a: 3.44

q: Likewise for R19H ?
a: 3.34

q: Next variant up: L14F
a: 3.27

q: Now the variant A18V
a: 2.98

q: Same read-out for S16W ?
a: 3.35

q: How about this variant: L2T
a: 2.94

q: // same read-out, input: L9P
a: 4.79

q: What do you have for E24D ?
a: 2.45

q: Okay, and S5D ?
a: 2.74

q: Thanks! And S5L ?
a: 3.13

q: Again, but for L9A
a: 4.79

q: Try L9F next.
a: 4.1

q: Follow-up item: E8L
a: 2.27

q: And the next one, A11R ?
a: 2.62

q: // repeat for S5V and report
a: 3.03

q: Consider next the variant L23K in the same way.
a: 4.65

q: Thanks! And H15P ?
a: 4.91

q: Same thing, different variant: L14M
a: 2.93
